Each entry below carries its recorded Ratio/FWT.
- measured target: T1, FcRn-p3 fusion protein (human, UniProt P55899 24-297; P61769 21-119)
- T1 construct: baculovirus expressed; coated on ELISA wells; not shown: amino terminal part of bacteriophage p3 protein and CVDE protein
- T1 sequence (P55899 24-297, chain 1 of 2): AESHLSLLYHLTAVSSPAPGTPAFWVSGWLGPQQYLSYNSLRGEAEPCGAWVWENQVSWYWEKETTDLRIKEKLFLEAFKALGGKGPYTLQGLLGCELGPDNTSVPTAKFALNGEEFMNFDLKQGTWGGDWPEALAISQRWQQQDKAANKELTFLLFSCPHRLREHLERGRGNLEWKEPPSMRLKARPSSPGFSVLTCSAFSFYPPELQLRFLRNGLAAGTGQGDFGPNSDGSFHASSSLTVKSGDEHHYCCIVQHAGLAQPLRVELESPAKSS
- T1 sequence (P61769 21-119, chain 2 of 2): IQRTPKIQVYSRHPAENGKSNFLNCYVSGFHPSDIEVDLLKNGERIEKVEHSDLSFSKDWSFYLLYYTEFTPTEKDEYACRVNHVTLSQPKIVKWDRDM
- measurement notes: phage ELISA pH6 (est.)
Expressed in fold, but write only the number.

Some entries whose results are on file:
[[record]]
binder = "T3A_08 (other, EU numbering) CPPCPAPELLGGPSVFLFPPKPKDTLMISRTPEVTCVVEDVSHEDPEVKFNWYVDGVEVHNAKTKPREEQYNSTYRVVSVLTVLHQDWLNGKEYKCKVSNKALPAPIEKTISKAKGQPREPQVYTLPPSRDELTKNQVSLTCLVKGFYPSDIVVEWESNGQPENNYKTTPPVLDSDGSLFLYSKLTVDKSRWQQGNVFSCSVMHEALHNHYTQKSLSLSPGK"
unit_symbol = "fold"
obs_value = 3.5

[[record]]
binder = "C7A_89 (other, EU numbering) CPPCPAPELLGGPSVFLFPPKPKDTLMISRTPEVTCVVVDVSHEDPEVKFNWYVDGVEVHNAKTKPREEQYNSTYRVVSVLPVLHQDWLNGKEYKCKVSNKTLPAPIEKTISKAKGQPREPQVYTLPPSRDELTKNQVSLTCLVKGFYPSDIAVEWESNGQPETNYKTTPPVLDSDGSFFLYSKLTVDKSRWQQGTVFSCSVMHEALHYHYTQKSLSLSPGK"
unit_symbol = "fold"
obs_value = 7.4


Please examine the following record next.
Input line: Give the value of Ratio/FWT reported for the following: C3A_15 (other, EU numbering) CPPCPAPELLGGPSVFLFPPKPKDTLMISRTPEVTCVVEDVSHEDPEVKFNWYVDGVEVHNAKTKPREEQYNSTYRVVSVLAVLHQDWLNGKEYKCKVSNKALPAPIEKTISKAKGQPREPQVYTLPPSRDELTKNQVSLTCLVKGFYPSDIVVEWESNGQPENNYKTTPPVLDSDGSFFLYSKLTVDKSRWQQGNVFSCSVMHEALHNHYTQKSLSLSPGK
Output line: 6
